- experiment: AUC in rat at 10 mg/kg, iv
- Assay type: ADME, organism-based
- Parameters: dose 10 mg/kg, route intravenous
- particulars: plasma
parameter measured: AUC (ng·h/mL)
Respond with the bare value in ng·h/mL.

Guide cases for AUC, answers given:
{"structure smiles": "COc1cnc2ccc(=O)n(C[C@H](N)[C@H]3CC[C@H](NCc4ccc5c(n4)NC(=O)CO5)CC3)c2c1", "test value": 3900}
{"structure smiles": "COc1ccc2ncc(=O)n(CCN3CCC(NCc4ccc5c(n4)NC(=O)CO5)CC3)c2c1", "test value": 190}

Pending compound:
Enquiry: Provide only the value of recorded AUC for N[C@@H](Cn1c(=O)cnc2ccc(F)cc21)[C@H]1CC[C@H](NCc2ncc3c(n2)NC(=O)CO3)CC1
Return: 3300

---

- experiment: Half life in beagle dog at 10 mg/kg, iv
- Assay type: ADME, organism-based, Canis lupus familiaris
- Set-up: dose 10 mg/kg, route intravenous
- particulars: in vivo
# reported half-life; entries follow
Units required after the number.

{"structure smiles": "COc1ccc2ncc(=O)n(CCN3CCC(NCc4ccc5c(n4)NC(=O)CO5)CC3)c2c1", "half-life": "13 h"}
{"structure smiles": "N[C@@H](Cn1c(=O)cnc2ccc(F)cc21)[C@H]1CC[C@H](NCc2ncc3c(n2)NC(=O)CO3)CC1", "half-life": "9 h"}

Lab note: next compound to report on.
Enquiry: Give me measured half-life, please, for this compound: COc1cnc2ccc(=O)n(C[C@H](N)[C@H]3CC[C@H](NCc4ccc5c(n4)NC(=O)CO5)CC3)c2c1
Return: 8 h

---

The following compounds are shown together with reported bioavailability values.
- experiment: Bioavailability in rat at 10 mg/kg, […]
- Type: ADME, organism-based
- particulars: in vivo
Unit % implied. Number only.

{"structure smiles": "N[C@@H](Cn1c(=O)cnc2ccc(F)cc21)[C@H]1CC[C@H](NCc2ncc3c(n2)NC(=O)CO3)CC1", "test value": 2}

Enquiry: Find the measured bioavailability of COc1ccc2ncc(=O)n(CCN3CCC(NCc4ccc5c(n4)NC(=O)CO5)CC3)c2c1 and report it.
Return: 18

---

- Tested on: Escherichia coli
- experiment: Antimicrobial activity against Escherichia coli W3110 after 18 to 20 hrs by broth microdilution
- Format: functional
- particulars: K-12 substr. W3110
Examples of compounds with documented MIC90 follow.
Response body: numeric value in µg/mL, unit text excluded.

Some compounds with known MIC90 results, for comparison:
{"structure smiles": "COc1ccc2ncc(=O)n(C[C@H](N)[C@H]3CC[C@H](NCc4ccc5c(n4)NC(=O)CO5)CC3)c2c1", "test value": 0.5}
{"structure smiles": "Cc1cc(=O)n(C[C@H](N)[C@H]2CC[C@H](NCc3ccc4c(n3)NC(=O)CO4)CC2)c2cc(F)ccc12", "test value": 0.5}
{"structure smiles": "COc1ccc2ncc(=O)n(CCN3CCC(NCc4ccc5c(n4)NC(=O)CO5)CC3)c2c1", "test value": 0.13}

Enquiry: Provide MIC90 value for the following compound: COc1ccc2ncc(=O)n(CC[C@]3(N)CC[C@H](NCc4ccc5c(n4)NC(=O)CO5)CC3)c2c1
Return: 1

Enquiry: Retrieve MIC90 measured for COc1cnc2ccc(=O)n(C[C@@H](N)[C@H]3CC[C@H](NCc4ccc5c(n4)NC(=O)CO5)CC3)c2c1 and print it.
Return: 8

Enquiry: # return recorded MIC90 for input N[C@@H](Cn1c(=O)ccc2ncc(F)cc21)[C@H]1CC[C@H](NCc2ccc3c(n2)NC(=O)CO3)CC1
Return: 1
